- Measured on: Human CD3εδ-Fc (human) (UniProt P04234)
- Sequence (chain, as listed by the source mutant, chain 1 of 2): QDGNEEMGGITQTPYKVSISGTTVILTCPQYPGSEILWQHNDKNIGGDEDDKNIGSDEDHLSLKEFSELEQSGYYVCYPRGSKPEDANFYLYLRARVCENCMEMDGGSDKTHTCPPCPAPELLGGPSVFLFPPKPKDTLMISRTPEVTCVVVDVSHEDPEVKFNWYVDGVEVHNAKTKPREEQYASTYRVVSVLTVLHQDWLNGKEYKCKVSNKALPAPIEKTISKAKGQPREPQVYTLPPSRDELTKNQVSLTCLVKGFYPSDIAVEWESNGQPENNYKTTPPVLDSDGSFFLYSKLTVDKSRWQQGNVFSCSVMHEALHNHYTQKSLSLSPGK
- Sequence (P04234 22-105, stated change not applied, chain 2 of 2): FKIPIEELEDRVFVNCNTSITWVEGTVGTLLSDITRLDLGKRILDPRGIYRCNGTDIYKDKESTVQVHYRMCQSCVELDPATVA
- Assay info: KD of scFv-Fc or IgG on human CD3εδ-Fc; instrument not given

{"Binder": "ADI-45963 (antibody, V domains shown, also called Ab26) VH: QVQLVQSGAEVKKPGAPVKVSCKASGFNIKDYYMHWVRQAPGQRLEWIGWIDLENANTVYDAKFQGRVTITRDTSASTAYMELSSLRSEDTAVYYCARDAYGRYFYDVWGQGTLVTVSS VL: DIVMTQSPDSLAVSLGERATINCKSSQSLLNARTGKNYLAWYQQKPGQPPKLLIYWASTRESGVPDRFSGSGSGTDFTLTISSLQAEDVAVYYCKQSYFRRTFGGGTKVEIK", "Output unit": "nM", "Kd": 0.069}
{"Binder": "ADI-46372 (antibody, V domains shown, also called Ab36) VH: QVQLVQSGAEVKKPGASVKVSCKASGFNIKDYYMHWVRQAPGQRLEWIGWIDLENANTVYDAKFQGRVTITRDTSAGTAHMELSSLRSEDTAVYYCARDAYGRYFYDVWGQGTPVTVSS VL: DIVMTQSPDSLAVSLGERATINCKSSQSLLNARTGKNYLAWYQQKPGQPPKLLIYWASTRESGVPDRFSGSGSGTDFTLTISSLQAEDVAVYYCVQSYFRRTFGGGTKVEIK", "Output unit": "nM", "Kd": 1.1}
{"Binder": "ADI-46370 (antibody, V domains shown, also called Ab34) VH: QVQLVQSGAEVKKPGASVKVSCKASGFNIKDYYMHWVRQAPGQRLEWIGWIDLENANTVYDHKFQGRVTITRDTSASTAYMELSSLRSEDTAVYYCARDAYGRYFYDVWGQGTLVTVSS VL: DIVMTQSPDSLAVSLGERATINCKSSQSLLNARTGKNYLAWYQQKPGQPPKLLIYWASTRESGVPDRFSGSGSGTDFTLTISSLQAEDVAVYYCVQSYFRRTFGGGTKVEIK", "Output unit": "nM", "Kd": 1}
{"Binder": "ADI-45976 (antibody, V domains shown, also called Ab12) VH: QVQLVQSGAEVKKPGASVKVSCKASGFNIKDYYMHWVRQAPGQRLEWIGWIDLENANTVYDAKFQGRVTITRDTSASTAYMELSSLRSEDTAVYYCVRDAYGRYFYDVWGQGTLVTVSS VL: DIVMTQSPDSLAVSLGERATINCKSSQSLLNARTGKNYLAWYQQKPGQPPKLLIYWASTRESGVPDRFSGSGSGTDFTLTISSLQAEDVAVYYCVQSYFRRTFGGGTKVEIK", "Output unit": "nM", "Kd": 0.12}
{"Binder": "ADI-46365 (antibody, V domains shown, also called Ab49) VH: QVQLVQSGAEVKKPGASVKVSCKASGFNIKDYYMHWVRQAPGQRLEWIGWIDLENANTVYDAKFQGRVTITRDTSAGTAHMELSSLRSEDTAVYYCARDAYGRYFYDVWGQGTPVTVSS VL: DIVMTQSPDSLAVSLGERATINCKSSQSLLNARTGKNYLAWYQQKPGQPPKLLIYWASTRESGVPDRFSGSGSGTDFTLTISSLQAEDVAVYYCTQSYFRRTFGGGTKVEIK", "Output unit": "nM", "Kd": 1}
